Entries annotated with measured r1 human plasma
assay explanation: Relaxivity measurements at 1.41 T in water and human plasma
Assay type: physicochemical
study conditions: 37° C., human plasma, normalized to Gd
# value in L/mmol/s; strip the unit string

# example entries with known answers
CCOCCOc1ccc(CC2CN(CC(=O)[O-])CCN(CC(=O)[O-])CCN(CC(=O)[O-])CCN2CC(=O)O)cc1.[Gd+3] (stereo not drawn) [Compound 22] :: 6.6
CC(C(=O)NCC(=O)N1CCN(C(=O)CNC(=O)C(C)N2CCN(CC(=O)[O-])CCN(CC(=O)[O-])CCN(CC(=O)[O-])CC2)CCN(C(=O)CNC(=O)C(C)N2CCN(CC(=O)[O-])CCN(CC(=O)[O-])CCN(CC(=O)[O-])CC2)CCN(C(=O)CNC(=O)C(C)N2CCN(CC(=O)[O-])CCN(CC(=O)[O-])CCN(CC(=O)[O-])CC2)CC1)N1CCN(CC(=O)[O-])CCN(CC(=O)[O-])CCN(CC(=O)[O-])CC1.[Gd+3].[Gd+3].[Gd+3].[Gd+3] (stereo not drawn) [Compound 7] :: 12.1
CCOCCOCCOc1ccc(CC(C(=O)[O-])N2CCN(CC(=O)[O-])CCN(C(CC)C(=O)[O-])CCN(CC(=O)O)CC2)cc1.[Gd+3] (stereo not drawn) [Compound 20] :: 6.9
CCCCOc1ccc(CC2CN(CC(=O)[O-])CCN(CC(=O)[O-])CCN(CC(=O)O)CCN2CC(=O)[O-])cc1.[Gd+3] (stereo not drawn) [Compound 24] :: 9.8
O=C([O-])CN1CCN(CC(=O)[O-])CCN(CC(=O)NCC(CNC(=O)CN2CCN(CC(=O)[O-])CCN(CC(=O)[O-])CCN(CC(=O)[O-])CC2)(CNC(=O)CN2CCN(CC(=O)[O-])CCN(CC(=O)[O-])CCN(CC(=O)[O-])CC2)CNC(=O)CN2CCN(CC(=O)[O-])CCN(CC(=O)[O-])CCN(CC(=O)[O-])CC2)CCN(CC(=O)[O-])CC1.[Gd+3].[Gd+3].[Gd+3].[Gd+3] [Compound 10] :: 9.7
CCCCOc1ccc(CCCC(C(=O)O)N2CCN(CC(=O)O)CCN(CC(=O)O)CCN(CC(=O)O)CC2)cc1 (stereo not drawn) [Compound 18] :: 15.8
CCCCOc1cccc(CCC[C@@H](C(=O)O)N2CCN([C@@H](CO)C(=O)[O-])CCN([C@@H](CO)C(=O)[O-])CCN([C@@H](CO)C(=O)[O-])CC2)c1.[Gd+3] [Compound 19] :: 18.0
O=C([O-])CN1CCN(CC(=O)[O-])CCN(C(Cc2ccc(OCC(F)(F)C(F)F)cc2)C(=O)[O-])CCN(CC(=O)O)CC1.[Gd+3] (stereo not drawn) [Compound 21] :: 10.8

Entry under review: CCOc1ccc(CC2CN(CC(=O)[O-])CCN(CC(=O)[O-])CCN(CC(=O)O)CCN2CC(=O)[O-])cc1.[Gd+3] (stereo not drawn) [Compound 23] . Reported r1 human plasma?
6.2

* * *

assay explanation: Relaxivity measurements at 1.41 T in water and human plasma
Format: physicochemical
study conditions: 37° C., human plasma, normalized to Gd
Returns: string. Value is Criterion met if measured r1 human plasma is below 9 L/mmol/s, and Criterion not met if it is greater than or equal to it.

CCOCCOCCOc1ccc(CCC[C@@H](C(=O)O)N2CCN([C@@H](CO)C(=O)[O-])CCN([C@@H](CO)C(=O)[O-])CCN([C@@H](CO)C(=O)[O-])CC2)cc1.[Gd+3] [Compound 15] :: Criterion met
CCOCCOc1ccc(CC(C(=O)[O-])N2CCN(CC(=O)[O-])CCN(C(CC)C(=O)O)CCN(CC(=O)[O-])CC2)cc1.[Gd+3] (centres unmarked) [Compound 13] :: Criterion met
CCCC(C(=O)[O-])N1CCN(CC(=O)[O-])CCN(C(Cc2ccc(OCC)cc2)C(=O)O)CCN(CC(=O)[O-])CC1.[Gd+3] (centres unmarked) [Compound 17] :: Criterion met

Now look at this one.
Bench note: check whether CCCCOc1ccc(CC(C(=O)[O-])N2CCN(CC(=O)[O-])CCN(CC(=O)[O-])CCN(CC(=O)O)CC2)cc1.[Gd+3] (centres unmarked) [Compound 14] shows r1 human plasma below 9 L/mmol/s
Criterion not met

* * *

Entries annotated with measured r1 water
assay explanation: Relaxivity measurements at 1.41 T in water and human plasma
Type: physicochemical
study conditions: 37° C., water, normalized to Gd
# value in L/mmol/s; strip the unit string

# example entries with known answers
CCOCCOCCOc1ccc(CC(C(=O)[O-])N2CCN(CC(=O)[O-])CCN(C(CC)C(=O)[O-])CCN(CC(=O)O)CC2)cc1.[Gd+3] (stereo not drawn) :: 4.8
O=C([O-])CN1CCN(CC(=O)[O-])CCN(CC(=O)N2CCN(C(=O)CN3CCN(CC(=O)[O-])CCN(CC(=O)[O-])CCN(CC(=O)[O-])CC3)CC(C(=O)N3CC4CN(C(=O)C5CN(C(=O)CN6CCN(CC(=O)[O-])CCN(CC(=O)[O-])CCN(CC(=O)[O-])CC6)CCN(C(=O)CN6CCN(CC(=O)[O-])CCN(CC(=O)[O-])CCN(CC(=O)[O-])CC6)C5)CC(C3)N4)C2)CCN(CC(=O)[O-])CC1.[Gd+3].[Gd+3].[Gd+3].[Gd+3] :: 7.4
CCOCCOCCOc1ccc(CCC[C@H](C(=O)O)N2CCN([C@H](CO)C(=O)[O-])CCN([C@H](CO)C(=O)[O-])CCN([C@H](CO)C(=O)[O-])CC2)cc1.[Gd+3] :: 5.3
CCOCCOc1ccc(CC(C(=O)[O-])N2CCN(CC(=O)[O-])CCN(C(CC)C(=O)O)CCN(CC(=O)[O-])CC2)cc1.[Gd+3] (stereo not drawn) :: 4.5
O=C([O-])CN1CCN(CC(=O)[O-])CCN(C(Cc2ccc(OCC(F)(F)C(F)F)cc2)C(=O)[O-])CCN(CC(=O)O)CC1.[Gd+3] (stereo not drawn) :: 3.5

Entry under review: CCCCOc1ccc(CC(C(=O)[O-])N2CCN(CC(=O)[O-])CCN(CC(=O)[O-])CCN(CC(=O)O)CC2)cc1.[Gd+3] (stereo not drawn) . Reported r1 water?
4.3

Entry under review: CCOCCOc1ccc(CC2CN(CC(=O)[O-])CCN(CC(=O)[O-])CCN(CC(=O)[O-])CCN2CC(=O)O)cc1.[Gd+3] (stereo not drawn) . Reported r1 water?
4.8

Entry under review: CCOc1ccc(CC2CN(CC(=O)[O-])CCN(CC(=O)[O-])CCN(CC(=O)O)CCN2CC(=O)[O-])cc1.[Gd+3] (stereo not drawn) . Reported r1 water?
4.5

Entry under review: CCCC(C(=O)[O-])N1CCN(CC(=O)[O-])CCN(C(Cc2ccc(OCC)cc2)C(=O)O)CCN(CC(=O)[O-])CC1.[Gd+3] (stereo not drawn) . Reported r1 water?
4.4

Entry under review: "O=C([O-])CN1CCN(CC(=O)[O-])CCN(CC(=O)NCC(CNC(=O)CN2CCN(CC(=O)[O-])CCN(CC(=O)[O-])CCN(CC(=O)[O-])CC2)(CNC(=O)CN2CCN(CC(=O)[O-])CCN(CC(=O)[O-])CCN(CC(=O)[O-])CC2)CNC(=O)CN2CCN(CC(=O)[O-])CCN(CC(=O)[O-])CCN(CC(=O)[O-])CC2)CCN(CC(=O)[O-])CC1.[Gd+3].[Gd+3].[Gd+3].[Gd+3]" . Reported r1 water?
7.3

Entry under review: CCCCOc1ccc(CC2CN(CC(=O)[O-])CCN(CC(=O)[O-])CCN(CC(=O)O)CCN2CC(=O)[O-])cc1.[Gd+3] (stereo not drawn) . Reported r1 water?
5.3

Entry under review: CCCCOc1ccc(CCCC(C(=O)O)N2CCN(CC(=O)O)CCN(CC(=O)O)CCN(CC(=O)O)CC2)cc1 (stereo not drawn) . Reported r1 water?
4.4

Entry under review: "CCCCOc1cccc(CCC[C@@H](C(=O)O)N2CCN([C@@H](CO)C(=O)[O-])CCN([C@@H](CO)C(=O)[O-])CCN([C@@H](CO)C(=O)[O-])CC2)c1.[Gd+3]" . Reported r1 water?
4.9

Entry under review: CC(C(=O)NCC(=O)N1CCN(C(=O)CNC(=O)C(C)N2CCN(CC(=O)[O-])CCN(CC(=O)[O-])CCN(CC(=O)[O-])CC2)CCN(C(=O)CNC(=O)C(C)N2CCN(CC(=O)[O-])CCN(CC(=O)[O-])CCN(CC(=O)[O-])CC2)CCN(C(=O)CNC(=O)C(C)N2CCN(CC(=O)[O-])CCN(CC(=O)[O-])CCN(CC(=O)[O-])CC2)CC1)N1CCN(CC(=O)[O-])CCN(CC(=O)[O-])CCN(CC(=O)[O-])CC1.[Gd+3].[Gd+3].[Gd+3].[Gd+3] (stereo not drawn) . Reported r1 water?
10.8

Entry under review: "CCOCCOCCOc1ccc(CCC[C@@H](C(=O)O)N2CCN([C@@H](CO)C(=O)[O-])CCN([C@@H](CO)C(=O)[O-])CCN([C@@H](CO)C(=O)[O-])CC2)cc1.[Gd+3]" . Reported r1 water?
5.1
